biological target: Human Jak2 kinase domain (Homo sapiens (Human), UniProt O60674); assay: Jak2 Inhibition Assay (Omnia kinase assay); format: biochemical; details: Table 1; 500 μM ATP; >1000 nM when >50% inhibition not observed at 1000 nM; read-out: Jak2 Enzyme IC50
Sequence (O60674 808-1132): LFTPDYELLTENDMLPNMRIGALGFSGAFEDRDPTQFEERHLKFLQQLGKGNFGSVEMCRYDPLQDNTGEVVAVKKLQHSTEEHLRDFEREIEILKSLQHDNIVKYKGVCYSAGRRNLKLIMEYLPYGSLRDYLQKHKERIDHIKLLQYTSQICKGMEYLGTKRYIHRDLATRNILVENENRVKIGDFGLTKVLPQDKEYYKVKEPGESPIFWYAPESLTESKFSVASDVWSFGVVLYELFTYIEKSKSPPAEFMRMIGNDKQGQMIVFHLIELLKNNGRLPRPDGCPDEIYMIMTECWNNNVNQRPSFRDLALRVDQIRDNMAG
recorded-endpoint: IC50

Please review the entries below; each comes with its answer.
In [3]: df
Out[3]:
                              line_notation   measured
0  CC(C)NC(=O)c1cnn2ccc(N3CCC[C@@H]3c3cncc(F)c3)nc12  > 1000 nM
1  CNC(=O)c1cnn2ccc(N3C[C@@H](O)C[C@@H]3c3cccc(F)c3)nc12  > 1000 nM
2  COc1ncc(F)cc1[C@H]1CCCN1c1ccn2ncc(C(=O)N[C@H]3CC[C@H](O)C3)c2n1     524 nM

Now consider the entry below.
Enquiry: Using the record for COc1ncc(F)cc1[C@H]1CCCN1c1ccn2ncc(C(=O)NCC(C)(C)O)c2n1 , report its IC50.
Return: > 1000 nM
